# Subject Of Test: Peptide 1593 (…) (Mycobacterium tuberculosis)
# Protocol Notes: ELISA, NNK clone supernatant on coated peptide

Binder	OD450 nm (OD450)
65D3 chimeric Fab, NNK library L3 mutant S to L (VL S25L) (Fab, V domains shown) VH: QSLEESGGRLVTPGGSLTLTCTVSGFSLSTHDISWVRQAPGKGLEWIGVIARRGSTYYASWAKGRFTISKTSTTVDLKITSPTIEDTATYFCAREEFDFWGQGTLVTVSS VL: AVLTQTASPVSAAVGGTVTISCQSLQSVYNNKELSWFQQKPGQPPKLLISYASTLASGVPSRFKGSGSGTQFTLTISDLECDDAATYYCLGGYASTIDMWAFGGGTEVVVK	0.954
65D3 chimeric Fab, NNK library L20 mutant S to T (L-S57T) (Fab, V domains shown) VH: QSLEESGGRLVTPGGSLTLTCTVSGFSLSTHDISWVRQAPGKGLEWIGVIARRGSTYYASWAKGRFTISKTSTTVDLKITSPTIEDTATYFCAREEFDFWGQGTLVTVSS VL: AVLTQTASPVSAAVGGTVTISCQSSQSVYNNKELSWFQQKPGQPPKLLISYASTLATGVPSRFKGSGSGTQFTLTISDLECDDAATYYCLGGYASTIDMWAFGGGTEVVVK	0.977
65D3 chimeric Fab, NNK library L5 mutant S to V (VL S27V) (Fab, V domains shown) VH: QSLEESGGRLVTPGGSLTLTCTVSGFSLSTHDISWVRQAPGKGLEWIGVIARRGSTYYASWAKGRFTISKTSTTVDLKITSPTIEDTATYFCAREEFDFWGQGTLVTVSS VL: AVLTQTASPVSAAVGGTVTISCQSSQVVYNNKELSWFQQKPGQPPKLLISYASTLASGVPSRFKGSGSGTQFTLTISDLECDDAATYYCLGGYASTIDMWAFGGGTEVVVK	1.09
65D3 chimeric Fab, NNK library L5 mutant S to T (VL S27T) (Fab, V domains shown) VH: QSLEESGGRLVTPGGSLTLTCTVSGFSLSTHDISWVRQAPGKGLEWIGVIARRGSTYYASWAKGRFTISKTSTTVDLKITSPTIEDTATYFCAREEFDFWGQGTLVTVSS VL: AVLTQTASPVSAAVGGTVTISCQSSQTVYNNKELSWFQQKPGQPPKLLISYASTLASGVPSRFKGSGSGTQFTLTISDLECDDAATYYCLGGYASTIDMWAFGGGTEVVVK	1.11
65D3 chimeric Fab, NNK library L5 mutant S to F (VL S27F) (Fab, V domains shown) VH: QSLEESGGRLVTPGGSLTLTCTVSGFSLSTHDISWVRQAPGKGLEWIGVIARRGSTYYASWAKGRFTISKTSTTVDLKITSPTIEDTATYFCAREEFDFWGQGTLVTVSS VL: AVLTQTASPVSAAVGGTVTISCQSSQFVYNNKELSWFQQKPGQPPKLLISYASTLASGVPSRFKGSGSGTQFTLTISDLECDDAATYYCLGGYASTIDMWAFGGGTEVVVK	1.11
